Biological target: CGRP receptor (Homo sapiens, UniProt O60894+Q16602)
Sequence (Q16602 23-461): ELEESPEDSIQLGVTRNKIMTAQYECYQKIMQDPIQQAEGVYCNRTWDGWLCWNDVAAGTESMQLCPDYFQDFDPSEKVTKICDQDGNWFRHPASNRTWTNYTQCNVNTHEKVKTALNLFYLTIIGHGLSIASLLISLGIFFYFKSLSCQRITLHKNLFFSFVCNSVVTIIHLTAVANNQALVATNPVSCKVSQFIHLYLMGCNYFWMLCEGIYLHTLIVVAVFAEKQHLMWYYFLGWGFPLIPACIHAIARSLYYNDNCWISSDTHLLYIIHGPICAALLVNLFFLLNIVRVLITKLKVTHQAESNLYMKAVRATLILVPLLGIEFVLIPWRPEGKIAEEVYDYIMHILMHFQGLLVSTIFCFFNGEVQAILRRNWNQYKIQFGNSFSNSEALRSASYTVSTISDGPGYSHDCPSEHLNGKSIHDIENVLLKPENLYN
Sequence (O60894 27-148): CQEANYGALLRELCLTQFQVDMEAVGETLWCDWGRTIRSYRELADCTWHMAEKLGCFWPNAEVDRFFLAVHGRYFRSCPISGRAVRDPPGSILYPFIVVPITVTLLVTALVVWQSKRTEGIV
Test: Cyclic AMP functional antagonism assay in SK-N-MC cells
Assay type: cell-based
Design: SK—N-MC cells that endogenously express the human CGRP receptor; endogenous in cells; host or cells: SK-N-MC cells
Details: inhibition of 0.3 nM CGRP-induced cyclic AMP formation, 15 min pre-incubation, read-out: cAMP Function IC50
Reported IC50 values follow for various compounds

Q) Give IC50 only, for C[C@@H](c1ccccc1)N1Cc2c(ccc3[nH]ncc23)C[C@@H](NC(=O)N2CCC(N3Cc4ccccc4NC3=O)CC2)C1=O [Example 10] , using CGRP receptor (Homo sapiens, UniProt O60894+Q16602) data.
A) 10 to 100 nM

Q) Give IC50 only, for CC(C)(C)CN1Cc2c(ccc3[nH]ncc23)C[C@@H](CC(=O)N2CCC(N3Cc4cccc(F)c4NC3=O)CC2)C1=O [Example 39] , using CGRP receptor (Homo sapiens, UniProt O60894+Q16602) data.
A) 10 to 100 nM

Okay, next one:
Q) Give IC50 only, for CC(C)(C)CCN1Cc2c(ccc3[nH]ncc23)C[C@@H](NC(=O)N2CCC(N3Cc4ccccc4NC3=O)CC2)C1=O [Example 16] , using CGRP receptor (Homo sapiens, UniProt O60894+Q16602) data.
A) 0.1 to 10 nM

Measured values drawn from patent US7384931B2 for this set.
